Where do these numbers come from? They come from patent US12297203B2.

studyTarget: UniProt P52333
Sequence (P52333 781-1124): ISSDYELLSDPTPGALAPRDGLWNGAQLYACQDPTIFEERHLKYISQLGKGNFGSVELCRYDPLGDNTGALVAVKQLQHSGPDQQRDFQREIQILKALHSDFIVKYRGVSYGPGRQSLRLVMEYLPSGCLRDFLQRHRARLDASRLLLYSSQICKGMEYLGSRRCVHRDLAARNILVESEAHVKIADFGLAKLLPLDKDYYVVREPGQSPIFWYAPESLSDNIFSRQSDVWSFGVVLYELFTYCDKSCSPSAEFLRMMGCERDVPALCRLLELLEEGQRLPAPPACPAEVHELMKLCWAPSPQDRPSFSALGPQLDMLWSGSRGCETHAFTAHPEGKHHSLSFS
assayProtocol: JAK3 enzyme activity assay (Caliper mobility shift)
Type: biochemical
runConditions: ATP at Km level; read-out: JAK3 Inh. IC50
pIC50: −log10 of the molar value.
recordedMetric: pIC50

Use these answered entries as a reference point.
C=CC(=O)N1CCC[C@@H](Nc2ncnc3[nH]cc(C(=O)[C@H]4CCOC4)c23)C1 (single isomer, unassigned) :: < 7.00
C[C@H]1CC[C@@H](Nc2ncnc3[nH]cc([C@H]4CC4(F)F)c23)CN1C(=O)/C=C/CN(C)C (single isomer, unassigned) :: ≥ 8.00
C=CC(=O)N1CCC[C@@H](Nc2ncnc3[nH]cc(C4=CCCC4)c23)C1 :: ≥ 8.00

input: I'd like to know its pIC50. The compound in question is C=CC(=O)N1C[C@H](Nc2ncnc3[nH]cc(CC4CCC(CC)C4)c23)CC[C@@H]1C (mixture of isomers)
output: ≥ 8.00

input: Item: C=CC(=O)N1C[C@H](Nc2ncnc3[nH]cc(C4CCCC4)c23)CC[C@@H]1C
output: ≥ 8.00

input: Another compound to check: C=CC(=O)N1CC(Nc2ncnc3[nH]cc(C(=O)C4CC4)c23)C1
output: < 7.00

====

Tested on: JAK1/3 phosphorylation of its substrate, STAT5, at Y694
assayProtocol: JAK1/3 target modulation assay (IL-2 stimulated STAT5 Y694 phosphorylation in PBMC)
Format: cell-based
runConditions: Homo sapiens, PBMC, Primary human peripheral blood mononuclear cells, IL-2 25 ng/mL; read-out: IL2-STAT5 Inh. IC50
Protocol: Target modulation was based upon the ability of a compound to inhibit JAK1/3 phosphorylation of its substrate, STAT5, at Y694. […] Samples were analyzed by either an MSD multiplex kit for Phospho-STAT5a,b/Total-STAT5a,b (MSD #K15163D) or an MSD single-plex kit for Phospho-STAT5a,b (MSD #K150IGD). The protocols for the respective kits were followed, and the plates were read on the MSD SECTOR S 600.
pIC50: −log10 of the molar value.
recordedMetric: pIC50

Sample answers from the record:
C=CC(=O)N1CCC[C@@H](Nc2ncnc3[nH]cc(CC4CCCC4)c23)C1 :: 6.00 to 7.00
C=CC(=O)N1CCC(Nc2cnc3[nH]cc(C(=O)C4CC4)c3n2)CC1 :: ≥ 7.00
C=CC(=O)N1C[C@H](Nc2ccnc3[nH]cc([C@H]4C[C@@H]4COC)c23)CC[C@@H]1C (single isomer, unassigned) :: < 6.00
C=CC(=O)N1CCC[C@@H](Nc2ncnc3[nH]cc(C(=O)[C@@H]4CCOC4)c23)C1 (single isomer, unassigned) :: < 6.00
C=CC(=O)N1C[C@H](Nc2ncnc3[nH]cc([C@H]4[C@@H](C)C4(F)F)c23)CC[C@@H]1C (single isomer, unassigned) :: ≥ 7.00
C=CC(=O)N1C[C@@H](Nc2ncnc3[nH]cc([C@@H]4CC4(F)F)c23)CC[C@H]1CC (single isomer, unassigned) :: 6.00 to 7.00

input: Could you share which pIC50 value was measured for C=CC(=O)N1C[C@@H](Nc2ncnc3[nH]cc(CC4CC4)c23)CC[C@H]1C(C)C (single isomer, unassigned) ?
output: 6.00 to 7.00

input: Next molecule up: C=CC(=O)N1C[C@H](Nc2ncnc3[nH]cc([C@@H]4CC4(F)F)c23)CC[C@@H]1C (single isomer, unassigned)
output: ≥ 7.00

input: One more molecule: C=CC(=O)N1C[C@H](Nc2ncnc3[nH]cc([C@H]4C(C)(C)C4(F)F)c23)CC[C@@H]1C (single isomer, unassigned)
output: ≥ 7.00

input: For C=CC(=O)N1C[C@H](Nc2ccnc3[nH]cc(C(=O)C4CC4)c23)CC[C@@H]1C then?
output: 6.00 to 7.00

input: And what about the molecule C=CC(=O)N1CCC[C@@H](Nc2ncnc3[nH]cc(CC4CCC4)c23)C1 ?
output: 6.00 to 7.00

input: Now try C=CC(=O)N1CCC(Nc2cnc3[nH]cc(C(=O)C4CC4)c3c2)CC1 .
output: < 6.00

input: Likewise for C=CC(=O)N1C[C@H](Nc2ncnc3[nH]cc(C4CC4COC)c23)CC[C@@H]1C (mixture of isomers) ?
output: 6.00 to 7.00

input: Entry to check: C=CC(=O)N1C[C@H](Nc2ncnc3[nH]cc([C@@H]4C(C)(C)C4(F)F)c23)CC[C@@H]1C (single isomer, unassigned)
output: 6.00 to 7.00
